assay-name: DRUGMATRIX: Glutamate, NMDA, Agonism radioligand binding (ligand: [3H] CGP-39653)
Format: cell membranes, Rattus norvegicus, Wistar, Cerebral cortex, Membrane
test-context: Not Active = under 50% inhibition at 10 µM

molecule	IC50
OC[C@H]1O[C@@H]2O[C@H]3[C@H](O)[C@@H](O)[C@@H](O[C@H]4[C@H](O)[C@@H](O)[C@@H](O[C@H]5[C@H](O)[C@@H](O)[C@@H](O[C@H]6[C@H](O)[C@@H](O)[C@@H](O[C@H]7[C@H](O)[C@@H](O)[C@@H](O[C@H]8[C@H](O)[C@@H](O)[C@@H](O[C@H]1[C@H](O)[C@H]2O)O[C@@H]8CO)O[C@@H]7CO)O[C@@H]6CO)O[C@@H]5CO)O[C@@H]4CO)O[C@@H]3CO	Not Active
CCN(CC)CCNC(=O)c1cc(Cl)c(N)cc1OC [METOCLOPRAMIDE]	Not Active
CCN(CC)C(=S)SSC(=S)N(CC)CC	Not Active
C1CCN2C[C@@H]3C[C@@H](CN4CCCC[C@@H]34)[C@H]2C1	Not Active
C#C[C@]1(O)CC[C@H]2[C@@H]3[C@H](C)CC4=C(CCC(=O)C4)[C@H]3CC[C@@]21C	Not Active
CC[C@H](C)C(=O)O[C@H]1CCC=C2C=C[C@H](C)[C@H](CC[C@@H]3C[C@@H](O)CC(=O)O3)[C@H]21	Not Active
NC(=O)NC(=O)Cc1ccccc1 [PHENACEMIDE]	Not Active
CN(Cc1cc(Br)cc(Br)c1N)C1CCCCC1	Not Active
Cc1cc(C(C)(C)C)c(O)c(C)c1CC1=NCCN1	Not Active
CC(N)C12CC3CC(CC(C3)C1)C2 (stereo unspecified)	Not Active
O=C(O)c1cc(/N=N/c2ccc(S(=O)(=O)Nc3ccccn3)cc2)ccc1O	Not Active
O=C(c1ccccc1)c1ccc2n1CCC2C(=O)O (stereo unspecified)	Not Active
C[C@H]1C[C@H]2[C@@H]3CCC4=CC(=O)C=C[C@]4(C)[C@@]3(F)[C@@H](O)C[C@]2(C)[C@@]1(O)C(=O)CO	Not Active
CC(C)NCC(O)COc1ccc(CC(N)=O)cc1 (stereo unspecified)	Not Active
CC[C@H]1OC(=O)[C@H](C)[C@@H](O[C@H]2C[C@@](C)(OC)[C@@H](O)[C@H](C)O2)[C@H](C)[C@@H](O[C@@H]2O[C@H](C)C[C@H](N(C)C)[C@H]2O)[C@](C)(O)C[C@@H](C)C(=O)[C@H](C)[C@@H](O)[C@]1(C)O	Not Active
CO[C@@]12[C@H](COC(N)=O)C3=C(C(=O)C(C)=C(N)C3=O)N1C[C@@H]1N[C@@H]12	Not Active
O=C1CN(/N=C/c2ccc([N+](=O)[O-])o2)C(=O)N1	Not Active
NS(=O)(=O)c1cc(C(=O)O)c(NCc2ccco2)cc1Cl [FUROSEMIDE]	Not Active
O=c1[nH]c2ccccc2c2ccccc12	Not Active
CC(C)(c1ccc(O)cc1)c1ccc(O)cc1	Not Active
Nc1nc(F)nc2c1ncn2[C@@H]1O[C@H](CO)[C@@H](O)[C@@H]1O	Not Active
CCN(CCO)CCCC(C)Nc1ccnc2cc(Cl)ccc12 (stereo unspecified) [HYDROXYCHLOROQUINE]	Not Active
C[C@H](C(=O)O)c1ccc2oc(-c3ccc(F)cc3)nc2c1	Not Active
CC(CN1c2ccccc2Sc2ccccc21)N(C)C (stereo unspecified)	Not Active
C#C[C@]1(O)CC[C@H]2[C@@H]3CCC4=CC(=O)CC[C@@H]4[C@H]3CC[C@@]21C	Not Active
CC(Cl)(Cl)Cl	Not Active
CCC(C)(C)C(=O)O[C@H]1C[C@@H](C)C=C2C=C[C@H](C)[C@H](CC[C@@H]3C[C@@H](O)CC(=O)O3)[C@H]21	Not Active
Cc1[nH]c(=O)c(C#N)cc1-c1ccncc1	Not Active
Cc1ccc(Cl)c(Nc2ccccc2C(=O)O)c1Cl	Not Active
CC(=O)O[C@]1(C(C)=O)CC[C@H]2[C@@H]3C[C@H](C)C4=CC(=O)CC[C@]4(C)[C@H]3CC[C@@]21C [MEDROXYPROGESTERONE ACETATE]	Not Active
O=C(NCCN1CCOCC1)c1ccc(Cl)cc1 [MOCLOBEMIDE]	Not Active
